Biological target: Phosphatidylinositol 5-phosphate 4-kinase type-2 gamma (Homo sapiens, UniProt Q8TBX8); note: in the data inactive means no Kd found up to 30 µM
Sequence (Q8TBX8 whole entry): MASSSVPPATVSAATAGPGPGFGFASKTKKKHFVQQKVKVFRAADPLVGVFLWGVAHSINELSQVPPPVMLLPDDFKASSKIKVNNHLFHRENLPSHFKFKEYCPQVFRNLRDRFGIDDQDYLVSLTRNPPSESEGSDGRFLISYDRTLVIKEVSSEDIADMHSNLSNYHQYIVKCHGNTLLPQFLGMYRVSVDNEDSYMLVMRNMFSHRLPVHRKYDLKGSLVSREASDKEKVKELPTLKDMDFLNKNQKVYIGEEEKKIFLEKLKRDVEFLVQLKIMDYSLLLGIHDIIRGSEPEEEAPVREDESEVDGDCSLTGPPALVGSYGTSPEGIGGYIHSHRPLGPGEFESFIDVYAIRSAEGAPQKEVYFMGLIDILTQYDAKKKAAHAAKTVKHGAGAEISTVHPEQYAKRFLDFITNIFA
Calls of active or inactive are those of the source.
Possible outcomes: active, inactive

| compound | assayed.system | class |
| --- | --- | --- |
| CNC(=O)c1ccc(C)c(-n2c(C)cc(OCc3ccc(F)cc3F)c(Br)c2=O)c1 | Phosphatidylinositol 5-phosphate 4-kinase type-2 gamma (Homo sapiens, UniProt Q8TBX8) | inactive |
| Cn1cc(-c2ccc3nnc(C(F)(F)c4ccc5ncccc5c4)n3n2)cn1 | Phosphatidylinositol 5-phosphate 4-kinase type-2 gamma (Homo sapiens, UniProt Q8TBX8) | active |
| COc1ccc(-c2ccc3c(N4CCOC[C@@H]4C)nc(N4CCOC[C@@H]4C)nc3n2)cc1CO | Phosphatidylinositol 5-phosphate 4-kinase type-2 gamma (Homo sapiens, UniProt Q8TBX8) | inactive |
| O=C(Nc1ccc(-c2ccnc(Nc3ccc(N4CCOCC4)cc3)n2)cc1)C1CCCN1 (centres undefined) | Phosphatidylinositol 5-phosphate 4-kinase type-2 gamma (Homo sapiens, UniProt Q8TBX8) | active |
| COc1cc(CCc2cc(NC(=O)c3ccc(N4C[C@@H](C)N[C@@H](C)C4)cc3)n[nH]2)cc(OC)c1 | Phosphatidylinositol 5-phosphate 4-kinase type-2 gamma (Homo sapiens, UniProt Q8TBX8) | inactive |
| C[C@@H]1CN(Cc2ccc(F)cc2)[C@@H](C)CN1C(=O)c1cc2c(C(=O)C(=O)N(C)C)cn(C)c2cc1Cl | Phosphatidylinositol 5-phosphate 4-kinase type-2 gamma (Homo sapiens, UniProt Q8TBX8) | inactive |
| CC[C@H](Nc1ncnc2[nH]cnc12)c1nc2cccc(F)c2c(=O)n1-c1ccccc1 | Phosphatidylinositol 5-phosphate 4-kinase type-2 gamma (Homo sapiens, UniProt Q8TBX8) | inactive |
| CCS(=O)(=O)N1CC(CC#N)(n2cc(-c3ncnc4[nH]ccc34)cn2)C1 | Phosphatidylinositol 5-phosphate 4-kinase type-2 gamma (Homo sapiens, UniProt Q8TBX8) | inactive |
| CN1CCC(CNc2ccc3ncc(-c4cccc(OC(F)(F)F)c4)n3n2)CC1 | Phosphatidylinositol 5-phosphate 4-kinase type-2 gamma (Homo sapiens, UniProt Q8TBX8) | inactive |

###

Activity calls are given as the source filed them.
This section lists Kd readings for Mitogen-activated protein kinase kinase kinase 20 (Homo sapiens).

| compound | Kd |
| --- | --- |
| CCS(=O)(=O)N1CC(CC#N)(n2cc(-c3ncnc4[nH]ccc34)cn2)C1 | > 30 µM (inactive) |
| COc1cc2nccc(Oc3ccc(NC(=O)NC4CC4)c(Cl)c3)c2cc1C(N)=O | > 30 µM (inactive) |
| Cc1cc([C@@H](C)Nc2ccccc2C(=O)O)c2nc(N3CCOCC3)cc(=O)n2c1 | > 30 µM (inactive) |
| Cn1cc(-c2ccc3nnc(C(F)(F)c4ccc5ncccc5c4)n3n2)cn1 | > 30 µM (inactive) |
| O=C(O)[C@]1(Cc2cccc(Nc3nccs3)n2)CC[C@@H](Oc2cccc(Cl)c2F)CC1 | > 30 µM (inactive) |
| CO[C@H]1C[C@@H]2CC[C@@H](C)[C@@](O)(O2)C(=O)C(=O)N2CCCC[C@H]2C(=O)O[C@H]([C@H](C)C[C@@H]2CC[C@@H](OCCO)[C@H](OC)C2)CC(=O)[C@H](C)/C=C(\C)[C@@H](O)[C@@H](OC)C(=O)[C@H](C)C[C@H](C)/C=C/C=C/C=C/1C | > 30 µM (inactive) |
| Cc1ccc(NC(=O)c2ccc(CN3CC[C@H](N(C)C)C3)c(C(F)(F)F)c2)cc1Nc1nccc(-c2cncnc2)n1 | 0.065 µM (active) |
| CC(=O)Nc1cccc(-n2c(=O)n(C3CC3)c(=O)c3c(Nc4ccc(I)cc4F)n(C)c(=O)c(C)c32)c1 | > 30 µM (inactive) |
| CN1CC[C@@H](c2c(O)cc(O)c3c(=O)cc(-c4ccccc4Cl)oc23)[C@@H]1CO | > 30 µM (inactive) |
| CNS(=O)(=O)Nc1nccc(Cc2c(C)c3ccc(Oc4ncccn4)cc3oc2=O)c1F | > 30 µM (inactive) |
| O=C(Nc1ccc(-c2ccnc(Nc3ccc(N4CCOCC4)cc3)n2)cc1)C1CCCN1 (centres undefined) | > 30 µM (inactive) |
| CN(C)C(=O)c1cc2cnc(Nc3ccc(N4CCNCC4)cn3)nc2n1C1CCCC1 | > 30 µM (inactive) |
| COC(=O)[C@@]1(O)C[C@H]2O[C@]1(C)n1c3ccccc3c3c4c(c5c6ccccc6n2c5c31)C(=O)NC4 [K-252A] | > 30 µM (inactive) |
| CCc1cnn2c(NCc3ccc[n+]([O-])c3)cc(N3CCCC[C@H]3CCO)nc12 | > 30 µM (inactive) |
| Cc1cc2c(F)c(Oc3ncnn4cc(OC[C@@H](C)OC(=O)[C@H](C)N)c(C)c34)ccc2[nH]1 [BRIVANIB ALANINATE] | > 30 µM (inactive) |
| O=c1sn(-c2cccc3ccccc23)c(=O)n1Cc1ccccc1 | > 30 µM (inactive) |
| COc1ccc(-c2ccc3c(N4CCOC[C@@H]4C)nc(N4CCOC[C@@H]4C)nc3n2)cc1CO | > 30 µM (inactive) |
| O=C1NC(=O)/C(=C/c2ccc3nccc(-c4ccncc4)c3c2)S1 | > 30 µM (inactive) |
| CC[C@@H]1C(=O)N(C)c2cnc(Nc3ccc(C(=O)N[C@H]4CC[C@H](N5CCN(CC6CC6)CC5)CC4)cc3OC)nc2N1C(C)C | > 30 µM (inactive) |
